procedure_text: Toxicity liver stage against HepG2, at 10uM
Assay type: cell-based
Design: test concentration 10 uM, cell line HepG2-A16-CD81EGFP
applied_conditions: human, HepG2-A16-CD81EGFP cells; read-out: INHIBITION
assay_endpoint: cytotoxicity at 10 µM
Could you give the number and then its unit, please?

{"columns": ["molecule", "cytotoxicity at 10 µM"],
 "data": [
  ["CN(c1ccc(CNc2ccc(Cl)cn2)cc1)S(C)(=O)=O", "5.03%"],
  ["N#CCCN(CCC#N)Cc1ccc(Br)c2cccnc12", "1.73%"],
  ["CCO[C@@H]1CO[C@@]2(CCCN(C(=O)COc3ccccc3OC)C2)C1", "3.51%"],
  ["O=C(C1CCCO1)N1CCC2(CC1)COCCN2CC1CC1 (stereo not given)", "2.79%"],
  ["O=S(=O)(c1cn[nH]c1)N1CCC(O)(CN2CCC(F)(F)CC2)C1 (stereo not given)", "5.92%"]
]}

Query: Quick one: cytotoxicity at 10 µM of CCn1ncnc1C(C)NC(=O)C1CCN(C2CCCCC2)CC1 (stereo not given) ?
Result: -149%

Query: Same read-out for CCN1CCC(CNC(=O)C2(c3ccc(F)cc3)CC2)C1 (stereo not given) ?
Result: -23%

Query: Same read-out for "Cc1ccc(CN(CCCn2ccnc2)Cc2cccs2)s1" ?
Result: -17.6%

Query: Same read-out for "CN(Cc1ccc(F)cc1)S(=O)(=O)N1CCOCC1" ?
Result: 2.35%

Query: Same read-out for "O=C1COC2(CCN(c3ncccn3)CC2)CN1Cc1ccccn1" ?
Result: 2.4%

Query: Same read-out for CC(C)N1CCC2(CCCNC2)C1=O (stereo not given) ?
Result: 0.906%

Query: Same read-out for COC(=O)c1ccc(NC(=O)CN2CCCCC2C2OCCO2)cc1 (stereo not given) ?
Result: 42.5%

Query: Same read-out for Cc1ccc(N2CCCC(NCc3ccccn3)C2)nn1 (stereo not given) ?
Result: 0.301%

Query: Same read-out for "Cc1ncsc1CCN(C)C(=O)CN1CC2(CCCC2)CC1=O" ?
Result: 2.19%

Query: Same read-out for CC(C)n1c(C2CCCN(CCS(C)(=O)=O)C2)nc2ccccc21 (stereo not given) ?
Result: -10.4%

====

procedure_text: Toxicity liver stage against HepG2, at 10uM
Assay type: cell-based
Design: test concentration 10 uM, cell line HepG2-A16-CD81EGFP
applied_conditions: human, HepG2-A16-CD81EGFP cells; read-out: INHIBITION
The compounds listed here are annotated with their cytotoxicity at 10 µM.
Express it in %; write the number only.

{"columns": ["compound", "scale_unit", "measured_value"],
 "data": [
  ["O=C(c1ccoc1)N1CC[C@@H]2[C@H]1CCC(=O)N2c1ccccc1", "%", -0.362]
]}

Query: Quick one: cytotoxicity at 10 µM of "Cc1nnc2ccc(C(=O)N3CCSC(C)(C)C3)cn12" ?
Result: -3.54

Query: Same read-out for "CCn1ncc(CN2CCC(O)(Cn3ccc4ncccc43)CC2)c1C" ?
Result: -0.692

Query: Same read-out for "COCC(=O)N1CCC[C@]2(C(=O)N(C)C)CN(c3ccccn3)C[C@@H]2C1" ?
Result: -10.1

Query: Same read-out for CCCc1cc(N2CCC(Cc3cccc(C(N)=O)c3)C2)nc(C)n1 (centres undefined) ?
Result: -1.62

Query: Same read-out for CN(CC1CN(CCn2cc(C#N)cn2)CCO1)c1cccnn1 (centres undefined) ?
Result: 1.85

Query: Same read-out for "O=C([C@@H]1C[C@@H]2CCN(C3CCOCC3)C[C@@H]2O1)N1CCOCC1" ?
Result: 7.34

Query: Same read-out for CC(Cn1cccn1)NCc1nc(-c2ccccn2)no1 (centres undefined) ?
Result: -5.17

Query: Same read-out for "CC(C)NC(=O)c1cnc(Sc2nccn2C)c(Cl)c1" ?
Result: -41.4

Query: Same read-out for "Cn1ccnc1CN1CCCN(C(=O)c2ccc3c(c2)OCO3)CC1" ?
Result: -6.61

Query: Same read-out for "N#Cc1cnn(C(=O)CCCOc2ccccc2Cl)c1N" ?
Result: -1.34

====

procedure_text: Toxicity liver stage against HepG2, at 10uM
Format: cell-based
Set-up: test concentration 10 uM, cell line HepG2-A16-CD81EGFP
applied_conditions: human, HepG2-A16-CD81EGFP cells; read-out: INHIBITION
assay_endpoint: cytotoxicity at 10 µM (%)
Express it in %; write the number only.

The cases that follow already have their cytotoxicity at 10 µM on record.
{"columns": ["molecule", "scale_unit", "cytotoxicity at 10 µM"],
 "data": [
  ["Cc1nc(C2(NCC(=O)NCc3cccs3)CCCCC2)no1", "%", 1.17],
  ["COc1cccc2c1N(CC(=O)Nc1ccc(Br)cn1)CCC2", "%", 36.5]
]}

Query: Quick one: cytotoxicity at 10 µM of Cc1ccc(-c2nnc(CCC(=O)N3CCCC3c3ccc[nH]3)o2)cc1 (stereo not given) ?
Result: -1.31

Query: Same read-out for "Cc1n[nH]c(C)c1CCN(C)c1ccc(-c2nc(C3CC3)no2)cn1" ?
Result: 2.08

Query: Same read-out for "COc1ccc(CNCc2ccnc(N3CCOCC3)c2)c(OC)c1" ?
Result: -8.92

====

procedure_text: Toxicity liver stage against HepG2, at 10uM
Type: cell-based
Parameters: test concentration 10 uM, cell line HepG2-A16-CD81EGFP
applied_conditions: human, HepG2-A16-CD81EGFP cells; read-out: INHIBITION
The compounds listed here are annotated with their cytotoxicity at 10 µM.
Express it in %; write the number only.

{"columns": ["compound", "cytotoxicity at 10 µM (%)"],
 "data": [
  ["COc1ccc2c(OCC(=O)NCC(F)(F)F)ccnc2c1", -3.88],
  ["CCN1CCCC1CNCc1cc2cc(OC)ccc2[nH]c1=O (centres undefined)", -10.2],
  ["CCc1nc2n(n1)CC(NCc1noc(-c3ccc(C)cc3)n1)CC2 (centres undefined)", -4.26],
  ["Cc1cc(C2CCCN(C(=O)c3ccc(OCC4CC4)nc3)C2)n[nH]1 (centres undefined)", -12.9],
  ["c1cncc(CN2CCCCC2c2ccc(Nc3cnccn3)nc2)c1 (centres undefined)", 4.41],
  ["c1ccc([C@@H]2CN(Cc3cccnc3)C[C@H]2c2cc[nH]n2)cc1", -4.24],
  ["Cc1nc(Nc2nnc(C)s2)cc(C2CCCN2)n1 (centres undefined)", 3.81],
  ["CC(C)c1cc(N2CCC(CCC(=O)NC3CC3)CC2)n2nccc2n1", -9.12],
  ["Cc1cnn(CCNCC(=O)N(C)C(C)c2ccccc2)c1 (centres undefined)", 8.83],
  ["Cc1cnc2[nH]c(C(F)(F)F)c(CN3CCOCC3)c2c1", 11.7]
]}

Query: Quick one: cytotoxicity at 10 µM of Cc1c(C(C)NCc2cnn(C)c2)cnn1-c1ccccc1 (centres undefined) ?
Result: -5.78

Query: Same read-out for "CCn1cc(CN2CCCN(C(=O)C3=NN(C)C(=O)CC3)CC2)cn1" ?
Result: 3.54

Query: Same read-out for "CNC(=O)c1cccnc1Oc1ccccc1" ?
Result: 2.84

Query: Same read-out for "O=C(O)CCNC(=O)Cc1csc(-c2cccc(Cl)c2)n1" ?
Result: 8.32

====

procedure_text: Toxicity liver stage against HepG2, at 10uM
Assay type: cell-based
Set-up: test concentration 10 uM, cell line HepG2-A16-CD81EGFP
applied_conditions: human, HepG2-A16-CD81EGFP cells; read-out: INHIBITION
The molecules listed here are annotated with their cytotoxicity at 10 µM.
Could you give the number and then its unit, please?

The cases that follow already have their cytotoxicity at 10 µM on record.
{"columns": ["molecule", "measured_value"],
 "data": [
  ["CN(C)CC(=O)N1CC2(CCN(Cc3ccccc3)C2)C1", "5.62%"],
  ["Cc1cc(C)n(CC(=O)N2CCCCC2CCc2cccs2)c(=O)n1 (centres undefined)", "6.93%"]
]}

Query: Quick one: cytotoxicity at 10 µM of O=C1CCC(=O)N1Cc1ccc(C(=O)N2CCCC2c2cccs2)cc1 (centres undefined) ?
Result: 2.8%

Query: Same read-out for "CCOC(=O)N1CCC(Nc2cc(CC)nc3c(C)c(C)nn23)CC1" ?
Result: 11.8%

====

procedure_text: Toxicity liver stage against HepG2, at 10uM
Assay type: cell-based
Set-up: test concentration 10 uM, cell line HepG2-A16-CD81EGFP
applied_conditions: human, HepG2-A16-CD81EGFP cells; read-out: INHIBITION
assay_endpoint: cytotoxicity at 10 µM (%)
Express it in %; write the number only.

The cases that follow already have their cytotoxicity at 10 µM on record.
{"columns": ["compound", "cytotoxicity at 10 µM (%)"],
 "data": [
  ["Cc1nc(CN2CCN(C(=O)c3ccc(=O)n(C)c3)CC2)cs1", -2.95],
  ["C[C@@H]1CN(C(=O)CCN2CCCC2)CC[C@@]1(O)C1CCOCC1", -5.15],
  ["CCc1ocnc1C(=O)N1CCC2(CCCN(CC(C)(C)C)C2=O)C1 (stereo not drawn)", 7.79],
  ["Cc1ncsc1C(=O)NCCNc1ncccn1", 1.76],
  ["CNc1ncccc1CN1CCCCC1c1cc(C)n2ccnc2n1 (stereo not drawn)", -2.17],
  ["Cc1noc2nc(C3CCN(Cc4ccncc4)CC3)cc(C(F)F)c12", 6.54],
  ["CCCn1nccc1NC(=O)CN1CCC[C@H]1CO", -1.8],
  ["CS(=O)(=O)N1CCC(c2nnc3ccc(C(=O)NC4CCC4)cn23)C1 (stereo not drawn)", 3.6],
  ["O=C(c1ccco1)N1CCC12CCN(c1ncc(F)cn1)CC2", -1.3],
  ["CNS(=O)(=O)c1ccc(C(=O)NC2CCOc3ccccc32)o1 (stereo not drawn)", -9.26]
]}

Query: Quick one: cytotoxicity at 10 µM of CCc1nccn1C1CCCN(C(=O)C2=NN(C)C(=O)CC2)C1 (stereo not drawn) ?
Result: -17.7

Query: Same read-out for O=S(=O)(NC1CCCOC1)c1ccc(C(F)(F)F)nc1 (stereo not drawn) ?
Result: -1.38

Query: Same read-out for "Cc1ccc2nc(CN(Cc3ccc(C#N)cc3)C(C)C)cc(=O)n2c1" ?
Result: 21.1
